Known IC50 of a selection of compounds
system: Vero C1008; experiment: Cytotoxicity against African green monkey Vero E6 cells assessed as cell growth inhibition after 48 hrs by celltitre 96 aqueous one-based assay; conditions: Chlorocebus sabaeus, Vero C1008, 48 h
measured-quantity: IC50 (µM)

> print(dat)
                                    compound  target.desc  value.modifier  reported
 1  CCCCCCCCn1cc(CN2CCC3(CC2)SCCS3)c2ccc(OC)cc21   Vero C1008               >       200
 2  CCCCCCCCn1cc(CN2CCOC3(CCCOC3)C2)c2ccc(OC)cc21 (stereo unspecified)   Vero C1008               >       500
 3  CCCCCCCCn1cc(CN2CCC3(CC2)OCCCO3)c2ccc(OCCC)cc21   Vero C1008               =        29
 4  CCCCCCCCn1cc(CN2CCCCC2)c2ccc(OC(C)C)cc21   Vero C1008               =        26
 5  CCCCCCCCn1cc(CN2CCC3(CC2)OC[C@@H](C)O3)c2ccc(OC)cc21   Vero C1008               =        37
 6      CCCCCCCCn1ccc2ccc(OCCCN3CCCCCC3)cc21   Vero C1008               =        33
 7  CCCCCCCCn1cc(CN2CCC3(CC2)OCCCO3)c2ccc([N+](=O)[O-])cc21   Vero C1008               =        28
 8  CCCCCCCCn1cc(CN2CC(c3ccccc3)C2)c2ccc(OC)cc21   Vero C1008               =        44
 9  CCCCCCCCn1cc(CNCC2CC3CCC2C3)c2ccc(OC)cc21 (stereo unspecified)   Vero C1008               =        10
10  CCCCCCCCn1cc(CN2CCC3(CC2)OCCO3)c2ccc([N+](=O)[O-])cc21   Vero C1008               =        62
11  COc1ccc2c(CN3CCC4(CC3)OCCCO4)cn(CCCOCc3ccccc3)c2c1   Vero C1008               =        54
